- System: PDGFRA
- TEST SETTINGS: concentration: 1 μM, replicates: in singlicate; n = 1;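 note: KINOMEscan kinase panel screen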
Consider the following molecules; for each one, report its %Inh.
Give bare numbers, in %.

In [3]: df
Out[3]:
                                   molecule  value_unit  test_value
0  Cc1ccc(C(=O)Nc2ccc(Nc3ccnc4cc(-c5ccccn5)ccc34)cc2O)cc1.Cl           %          54
1  CCCc1ccc(S(=O)(=O)NC2CCN(c3ccnc(Nc4ccc(F)cc4)n3)C2)cc1 (stereo not shown)           %           0
2  CC1=C(C(=O)Nc2cc3cn[nH]c3cc2F)C(c2ccc(C(F)(F)F)cc2)CC(=O)N1 (stereo not shown)           %           0
3  O=C(Nc1n[nH]c2cc(-c3cccc(F)c3F)ccc12)C1CC1           %          23
4  COc1ccc(Nc2nccc(NCCNC(=O)Nc3ccccc3F)n2)cc1           %           0

Batch request: %Inh for each of the following molecules.
1. O=C(Nc1ccc2c(c1)OCO2)NC1CCN(c2ccnc(Nc3ccc(F)cc3)n2)C1 (stereo not shown)
2. Fc1cc(Cl)ccc1Nc1ccnc2cc(I)ccc12

Output:
[0, 9]

====

- System: PIK3CD
- TEST SETTINGS: concentration: 1 μM, replicates: in singlicate; n = 1
REPORTED PROPERTY: %Inh
Answer as a quantity: numeral, then unit.

Consider the following illustrative entries.
>>> print(df.to_string())
                                   compound  test_value
0  COc1cc2ncn(-c3cc(OCC4CCCO4)c(C(N)=O)s3)c2cc1OC (centres unmarked)          0%
1  O=C(Nc1ccc2c(c1)OCO2)NC1CCN(c2ccnc(Nc3ccc(F)cc3)n2)C1 (centres unmarked)         10%
2               CCn1c(-c2cccnc2O)nc2cnccc21          0%
3  Cc1ccc(NC(=O)Nc2cccc(Cl)c2)cc1-c1ccc(C(=O)Nc2ccncc2)cc1          0%
4  Cc1cccc(-c2nc(Nc3cccc(C(N)=O)c3)c3ccccc3n2)n1         48%

Batch request: %Inh for each of the following compounds.
1. C[C@@H]1CCCCN1c1cc(-c2ccc3c(N)n[nH]c3c2)nc(N)n1
2. CC(C)(C)c1ccc(C(=O)Nc2cn3cc(Cl)ccc3n2)cc1
3. CCCc1ccc(S(=O)(=O)NC2CCN(c3ccnc(Nc4ccc(F)cc4)n3)C2)cc1 (centres unmarked)
4. COc1ccccc1-c1ccc2c(NC(=O)C3CC3)n[nH]c2n1
5. COc1ccc(C2=C(Nc3cccc(C(=O)O)c3)C(=O)NC2=O)cc1
6. CN(C)CCN(C)C(=O)c1cc(-c2ccncc2)c(-c2ccc(Cl)c(O)c2)o1.Cl.Cl
7. COc1ccc(Nc2nccc(-c3cccc(NC(=O)c4cc5cc(F)ccc5[nH]4)c3)n2)cc1
8. O=C(Nc1n[nH]c2nc(-c3nccs3)c(Br)cc12)C1CCCC1

Output:
["0%", "0%", "34%", "23%", "16%", "40%", "0%", "0%"]

====

- Tested on: ERBB3
- TEST SETTINGS: concentration: 1 μM, replicates: in singlicate; n = 1
REPORTED PROPERTY: %Inh (%)
Give bare numbers, in %.

Consider the following illustrative entries.
>>> df
                                   compound  value_unit  test_value
0  COc1cc2nccc(Nc3ccc(NC(=O)c4ccc(C)cc4)c(O)c3)c2cc1OC.Cl           %           0
1  COc1cc2ncn(-c3cc(OCC4CCCO4)c(C(N)=O)s3)c2cc1OC (stereo not shown)           %          20

Batch request: %Inh for each of the following compounds.
1. COc1cccc(NC(=O)NC2CCN(c3ccnc(Nc4ccc(F)cc4)n3)C2)c1 (stereo not shown)
2. O=C(Nc1n[nH]c2cc(-c3cccc(F)c3F)ccc12)C1CC1
3. CCn1c(-c2cccnc2O)nc2cnccc21
4. CCCc1ccc(S(=O)(=O)NC2CCN(c3ccnc(Nc4ccc(F)cc4)n3)C2)cc1 (stereo not shown)
5. Cc1ccc(-c2cc(-c3c[nH]nc3-c3ccccn3)ccn2)cc1

Output:
1. 0
2. 0
3. 0
4. 1
5. 36

Batch request: %Inh for each of the following compounds.
1. CS(=O)(=O)c1ccc(-c2nc3n(c2-c2ccncc2)CCC3)cc1
2. Cl.O=C(Nc1cccc(-c2nn3ncccc3c2-c2ccnc(Nc3cccnc3)n2)c1)c1c(F)cccc1F
3. Cc1c(Cn2ccn3c(=O)cc(N4CCOCC4)nc23)cccc1C(F)(F)F
4. Cc1c(O)cccc1Nc1ccnc2ccc(C(F)(F)F)cc12.Cl
5. Cc1ccc(NC(=O)Nc2cc(C(C)(C)C)nn2-c2ccccc2)cc1

Output:
1: 0; 2: 0; 3: 0; 4: 17; 5: 10

Batch request: %Inh for each of the following compounds.
1. O=c1cc(N2CCOCC2)nc2n(Cc3cccc(Cl)c3Cl)ccn12
2. CCn1c(-c2ccccn2)nc2cnccc21
3. Cc1ccc(NC(=O)Nc2cccc(Cl)c2)cc1-c1ccc(C(=O)Nc2ccncc2)cc1
4. COc1ccc(CNC(=O)NC2CCN(c3ccnc(Nc4cc(OC)c(OC)c(OC)c4)n3)C2)cc1 (stereo not shown)

Output:
0
14
0
27

====

- System: CSNK1G1
- TEST SETTINGS: concentration: 1 μM, replicates: in singlicate; n = 1
REPORTED PROPERTY: %Inh
Answer as a quantity: numeral, then unit.

Consider the following illustrative entries.
>>> print(df.to_string())
                                   compound  reported_property  test_value
0  Cc1c(Cn2ccn3c(=O)cc(N4CCOCC4)nc23)cccc1C(F)(F)F               %Inh         19%
1  COc1ccc(CNC(=O)NC2CCN(c3ccnc(Nc4cc(OC)c(OC)c(OC)c4)n3)C2)cc1 (stereo not shown)               %Inh          0%
2  O=S(=O)(c1ccc(-c2ccnc3[nH]ccc23)cc1)N1CCCC1               %Inh          5%

Proceed to the following item.
// recorded %Inh for CN(C)CCN(C)C(=O)c1cc(-c2ccncc2)c(-c2ccc(Cl)c(O)c2)o1.Cl.Cl : 0%

====

Consider the following molecules; for each one, report its %Inh.
- Tested on: BUB1
- TEST SETTINGS: concentration: 1 μM, replicates: in singlicate; n = 1
One number for each entry, in %.

Consider the following illustrative entries.
>>> print(df.to_string())
                                   molecule  reported_property  test_value
0  COc1ccc(Nc2nccc(-c3cccc(NC(=O)c4cc5cc(F)ccc5[nH]4)c3)n2)cc1 [GSK1229782]               %Inh          64
1  O=C(Nc1ccc2c(c1)OCO2)NC1CCN(c2ccnc(Nc3ccc(F)cc3)n2)C1 (stereo not shown) [GSK1379724]               %Inh          24
2  COc1ccc(CNC(=O)NC2CCN(c3ccnc(Nc4cc(OC)c(OC)c(OC)c4)n3)C2)cc1 (stereo not shown) [GSK1379748]               %Inh          32

Proceed to the following item.
Per the reported BUB1 data, Clc1cc(Cl)cc(Nc2ccnc(Nc3cc(Cl)cc(Cl)c3)n2)c1 [GSK175726] has %Inh of 10

====

- Test system: JNK1
- Construct: gene MAPK8
- TEST SETTINGS: concentration: 1 μM, replicates: in singlicate; n = 1
REPORTED PROPERTY: %Inh (%)
Give bare numbers, in %.

Batch request: %Inh for each of the following molecules.
1. Cc1nnc(-c2ccc3occ(-c4ccc(S(C)=O)cc4)c3c2)[nH]1 (stereo not drawn)
2. Cc1c(Cn2ccn3c(=O)cc(N4CCOCC4)nc23)cccc1C(F)(F)F [GSK2289044]
3. CC(C)(C)c1ccc(C(=O)Nc2cn3cc(-c4cccnc4)ccc3n2)cc1
4. COc1cccc(NC(=O)NC2CCN(c3ccnc(Nc4ccc(F)cc4)n3)C2)c1 (stereo not drawn) [GSK1379721]
5. COc1cc2ncn(-c3cc(OCC4CCCO4)c(C(N)=O)s3)c2cc1OC (stereo not drawn) [GSK204607]
6. Cc1ccc(C(=O)Nc2ccc(Nc3ccnc4cc(-c5ccccn5)ccc34)cc2O)cc1.Cl [GW440146]
7. O=S(=O)(c1ccc(-c2ccnc3[nH]ccc23)cc1)N1CCCC1 [GSK846226]

Output:
[3, 3, 24, 0, 0, 5, 26]

Batch request: %Inh for each of the following molecules.
1. Cn1ccc2ncnc(Oc3ccc(Nc4nc5ccccc5[nH]4)cc3)c21
2. COc1ccccc1CNC(=O)c1cc(C(=O)c2ccccc2C)c[nH]1 [GSK364507]

Output:
0
45
